Entry source: paper PMC12912723

biological target: PscF from strain PAO1 (Pseudomonas aeruginosa PAO1, UniProt P95434)
Sequence (P95434 whole entry): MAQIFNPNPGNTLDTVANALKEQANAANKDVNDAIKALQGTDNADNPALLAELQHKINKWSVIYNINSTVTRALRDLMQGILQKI
test-readout: binding result

{"binder": "P1D5 (antibody, V domains shown) VH: QVQLHESGPGLVEPSQTLTLTCTVSGGSTDSDGVYWTWIRQPAGKGLEWIGRIDNRGTYSYNPSLRSRITISEEPSQNQFSLRVRSLTAADAGVYYCAREVRRLQGRRYYYYGTDVWGPGTTVTVSS VL: DIVMTQSPLSLSVTLGESASISCRSSQSLLHTNAYNYLDWYLQRPGQSPQLLIYLSSVRASGVPDRFSGRGSGTDFTLKISRVEAEDVGIYFCMQALEMPFTFGPGTKVDIK", "result": "binds"}
{"binder": "P1D7 (antibody, V domains shown) VH: EVQLLESGGGLVQPGGSLRLSCAASGFTFTSYAMSWVRQAPGKGLEWVSALSNSGDSTYYADSVKGRFTISRDNSKNTLYLQMHSLRVEDTAVYYCAKDREGDYGDYVFDYWGQGTLVTVSS VL: SYVLTQPPSVSVAPGQTARIPCGGNNIGRKSVHWYQQKPGQAPVLVVYDDSDRPSGIPERFSGSNSGNTATLTISRVEAGDEADYYCQVWDSSDDLVVFGGGTTLTVL", "result": "binds"}
{"binder": "P1B7 (antibody, V domains shown) VH: EVQLLESGGGLVQPGGSLRLSCAASGFTFKSYAMSWVRQAPGKGLEWVSAISGSGGSKYYADSVKGRFTISRDDSKNTLYLQMNSLRVEDTAVYYCAKPLLDSVYCLESWGQGTLVTVSS VL: DIQMTQSPSSLSASVGDRVTITCRASQDISNYLSWYQQRPGKAPKSLIYAAFRLQSGVPSKFSGSGSGTDFTLTISSLQPEDFATYYCQQYYTYPPTFGQGTKLEIK", "result": "binds"}
{"binder": "P5D5 (antibody, V domains shown) VH: EVQLLESGGGLVQPGGSLRLSCAASGFTFNNYAMSWVRQAPGKGLEWVSAISGSGGSKYYADSVKGRFTISRDDSKSRLYLQMNSLRVEDTALYYCTKPLLESVYYLESWGQGTLVTVSS VL: DIQMTQSPSSLSASVGDRVTITCRASQGISNHLAWFQQKPGKAPKSLIYAASRLQSGVPSRFSGSGSGTDFTLTISSLQPEDFASYYCQQYYSYPPAFGQGTKLEIK", "result": "binds"}
{"binder": "P3G7 (antibody, V domains shown) VH: EVQLVESGGGLVQPGRSLTLSCAVTGFIVRDYHIDWVRQAPGKGLEWVGRARNKASRYRVVYAASLKDRFTIIRDDSKNSIYLRMSSLKTEDAAMYFCVRVGHYDTQGYALDDYDVWGQGTAVTVSS VL: QSVLTQSPSVSAAPGQRVTIHCFGSSSTIGSNQLSWYQQVPGTAPKLLIYDSDKRPSGIPDRFSASKSGTSGTLDISGLQSGDEADYYCETWDDTLKAVVFGGGTKLTVL", "result": "binds"}
{"binder": "P3G2 (antibody, V domains shown) VH: QVQLQESGPGLVKPSETLSLTCSVSGGSVASGDFYWSWVRQPAGTGLEWIGRVSTSGSTNCNPSLKSRVTISIDTSKNEFSLRLPSVTAADTAVYYCARYRPGSGGLGVYYDYWGQGILVTVSS VL: QSALTQPPSASGSPGQSVTISCTGASSDIGGYNYVSWYQQHPGRAPRLMIYEVHNRPSGVPDRFSGSKSGNTASLTVSGLQAEDEADYYCMSYAGGNILLFGGGTKLTVL", "result": "binds"}
